Attribution: ChEMBL document CHEMBL1201862

Tested on: TK-10
Experiment: NCI tumour cell line growth inhibition, 48 h
Activity calls are given as the source filed them. Rule as the data show it: active = GI50 up to about 1.1 µM and inactive = higher.
measurement kind: GI50

[[record]]
compound = "O=[N+]([O-])c1ccc2nc3ccscc-3c2c1"
measurement_kind = "GI50"
assay_result = "20.9 µM (inactive)"

[[record]]
compound = "Cn1/c(=N\\S(=O)(=O)c2ccccc2)n(S(=O)(=O)c2ccccc2)c2ccccc21"
measurement_kind = "GI50"
assay_result = "> 100 µM (inactive)"

[[record]]
compound = "C[n+]1cn(C2=C([N-]S(=O)(=O)c3ccccc3)C(=O)c3ccccc3C2=O)c2ccccc21"
measurement_kind = "GI50"
assay_result = "20.8 µM (inactive)"

[[record]]
compound = "CC(=O)NC1(c2cc3ccccc3s2)CCCCCC1"
measurement_kind = "GI50"
assay_result = "47.5 µM (inactive)"

[[record]]
compound = "C=CCN1C(=O)/C(=C/c2ccc(Cl)cc2)N=C1SC/C=C/C"
measurement_kind = "GI50"
assay_result = "> 100 µM (inactive)"

[[record]]
compound = "Cc1ccc(S(=O)(=O)Oc2ccc(OS(=O)(=O)c3ccc(C)cc3)c3c2C(=O)c2ccccc2C3=O)cc1"
measurement_kind = "GI50"
assay_result = "> 100 µM (inactive)"

[[record]]
compound = "CC(=O)N(O)Cc1ccccc1"
measurement_kind = "GI50"
assay_result = "> 100 µM (inactive)"

[[record]]
compound = "O=c1[nH]nc(Cc2ccccc2)n1-n1cnnc1"
measurement_kind = "GI50"
assay_result = "> 100 µM (inactive)"

[[record]]
compound = "COc1ccccc1NC(=O)C(CC(C(=O)Nc1ccccc1OC)/C(C)=N/Nc1ccc([N+](=O)[O-])cc1[N+](=O)[O-])/C(C)=N/Nc1ccc([N+](=O)[O-])cc1[N+](=O)[O-] (stereo not given)"
measurement_kind = "GI50"
assay_result = "14.6 µM (inactive)"

[[record]]
compound = "CN1C(=O)C(O)CC1c1ccc(C(F)(F)F)cc1 (stereo not given)"
measurement_kind = "GI50"
assay_result = "> 100 µM (inactive)"


====

Tested on: A549
Assay: NCI tumour cell line growth inhibition, 48 h
The source made the active and inactive calls. Cut-off read from the data, not from the text of the source: active = GI50 up to about 1.1 µM and inactive = higher.
Listed below: GI50 values for each entry.
measurement kind: GI50

[[record]]
compound = "CC(C)(C)C1(c2ccc(C3(c4ccccc4)Oc4ccccc4S3)[nH]2)Oc2ccccc2S1 (stereo unspecified)"
experimental_system = "A549"
assay_result = "> 100 µM (inactive)"

[[record]]
compound = "Clc1ccccc1NN(Cc1ccncc1)c1ccccc1Cl"
experimental_system = "A549"
assay_result = "12.5 µM (inactive)"

[[record]]
compound = "O=C(/C=C/c1ccccc1Cl)NC1C=Nc2ccc([N+](=O)[O-])cc2NC1 (stereo unspecified)"
experimental_system = "A549"
assay_result = "> 100 µM (inactive)"

[[record]]
compound = "C=CC1C(OC2OC(CO)C(O)C(O)C2O)OC=C(C(=O)OC)C1CC1CC(=O)CC(CCc2ccc(O)cc2)O1 (stereo unspecified)"
experimental_system = "A549"
assay_result = "> 100 µM (inactive)"

[[record]]
compound = "COC(=O)C1=C(OC(=O)c2ccccc2)C(C(=O)OC)[C@@]2(O)[C@@H](C(=O)OC)[C@H](C)C[C@@H]1[C@@H]2C(=O)OC (stereo partly specified)"
experimental_system = "A549"
assay_result = "19.5 µM (inactive)"

[[record]]
compound = "COc1ccc2nccc(SCC(=O)O)c2c1"
experimental_system = "A549"
assay_result = "> 100 µM (inactive)"

